The measurements presented in this section are drawn from the domain aggregation screens of Martell et al. (2025).

assay_notes: soluble fraction after stress (log2 fold change); higher = more stays soluble; pooled small domains, quantitative proteomics
recorded_conditions: stress: pH 4
Classify by measured soluble fraction (log2): Yes if it is equal to or exceeds -0.3, No if it is smaller.

HMKNEVENLSYMINRIIEYRDLNNLSNKNLANKIGISEALLSYILNGRRKLSKEIQRKIALFLLND :: No
HMSDIQKGTQINLVNEPLYVSSKTSIVSTYKTGTYYTWGFEANNRIAITNKLENIGVKGQVTGWINKP :: Yes
HMKTRIQDLRKELGVTQSELADAVDVTRQTIISLEGGRYKASLVLAHKLAQFFHVTIEELFIFD :: No
HMTLSHAINRLRLNANMSQEQFAGLFHVSQQSVQKWESGDSVPELSKLIAIAKHFGISLDALILGN :: Yes
HMSTSRAEIIAFLKSNPSSEYKHELETKLDEMDWAEAVKGNSEESFLAYKQRQPNGTHNGEADEKLKVLLV :: Yes
HMGSLGSLLKSVRNQRGLSRQQMAQSLNIGVRAIEQIEEGERKPDLELLNRYARGLMDPSVT :: Yes
HMSVIETLLSDREREVLTHLVNGYDAKRIAEITGISTLTVRKHIANIYTKLHVNSKAQVISMAHKNKWF :: No

# next sequence below
API: above_or_equal(metric=soluble fraction (log2), cutoff=-0.3) for item HMKEIKAPNKINAHLIEEWRSQHPTELFPEEKVDLIYYKGEEYYFVIEEKNELGEIEEWYFAYDGGIDYV
No
